- System: UniProt Q96RI1
- Sequence (Q96RI1 whole entry): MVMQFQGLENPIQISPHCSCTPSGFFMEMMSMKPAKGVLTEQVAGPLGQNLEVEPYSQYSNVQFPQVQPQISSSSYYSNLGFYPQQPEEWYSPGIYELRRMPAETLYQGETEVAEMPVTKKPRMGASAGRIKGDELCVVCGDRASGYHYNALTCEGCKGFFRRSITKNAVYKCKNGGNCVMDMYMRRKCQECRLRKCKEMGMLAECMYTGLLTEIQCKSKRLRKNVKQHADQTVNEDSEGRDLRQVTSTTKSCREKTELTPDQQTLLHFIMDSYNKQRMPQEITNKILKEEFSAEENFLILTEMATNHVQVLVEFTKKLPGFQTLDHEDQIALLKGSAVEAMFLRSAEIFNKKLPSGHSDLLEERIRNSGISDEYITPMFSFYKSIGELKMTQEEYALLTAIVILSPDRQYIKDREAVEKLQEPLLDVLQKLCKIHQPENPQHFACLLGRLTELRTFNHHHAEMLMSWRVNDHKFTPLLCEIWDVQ
- Assay remarks: FXR biochemical experiment (alphascreen, coactivator recruitment)
- Stated conditions: alphascreen; activation of FXR binding reaction with steroid receptor coactivator; read-out: FXR enzyme activity EC50
pEC50: −log10 of the molar value.
Please use T whenever pEC50 is not below 7, and F whenever it is.

Take a look at these entries with their results.
{"Compound": "O=C(O)c1ccc(N2C(=O)C3(CC3)c3cc(OCc4c(-c5c(Cl)cncc5Cl)noc4C4CC4)ccc32)cc1 [Compound 29]", "Group label": "F"}
{"Compound": "O=C(O)C1CCC(CN2C(=O)C3(CC3)c3cc(OCc4c(-c5c(Cl)cccc5Cl)noc4C4CC4)ccc32)CC1 (single isomer, unassigned) [Compound 21]", "Group label": "F"}
{"Compound": "O=C(O)c1cc(N2C(=O)CCc3cc(OCc4c(-c5c(Cl)cccc5Cl)noc4C4CC4)ccc32)ccc1F [Compound 42]", "Group label": "F"}

Check if pEC50 >= 7 (inclusive). Item: N#Cc1cc(C(=O)O)ccc1N1C(=O)CCc2cc(OCc3c(-c4c(Cl)cccc4Cl)noc3C3CC3)ccc21 [Compound 39]
T

Queued: O=C(O)C1CCC(CN2C(=O)C3(CC3)c3cc(OCc4c(-c5c(Cl)cccc5Cl)noc4C4CC4)ccc32)CC1 (single isomer, unassigned) [Compound 20]
F

Queued: O=C(O)c1csc(N2C(=O)C3(CC3)c3cc(OCc4c(-c5c(Cl)cccc5Cl)noc4C4CC4)ccc32)c1 [Compound 23]
F

Queued: O=C(O)c1ccccc1N1C(=O)C2(CC2)c2cc(OCc3c(-c4c(Cl)cccc4Cl)noc3C3CC3)ccc21 [Compound 26]
F

Queued: O=C(O)c1ccc(N2C(=O)CCc3cc(OCc4c(-c5c(Cl)cccc5Cl)noc4C4CC4)ccc32)cc1O [Compound 47]
T

Queued: O=C(O)c1cccc(CN2C(=O)C3(CCCC3)c3cc(OCc4c(-c5c(Cl)cccc5Cl)noc4C4CC4)ccc32)c1 [Compound 11]
F

Queued: Cc1cc(C(=O)O)cnc1N1C(=O)CCc2cc(OCc3c(-c4c(Cl)cccc4Cl)noc3C3CC3)ccc21 [Compound 43]
T

Queued: O=C(O)C1CC=C(N2C(=O)C3(CC3)c3cc(OCc4c(-c5c(Cl)cccc5Cl)noc4C4CC4)ccc32)CC1 (centres unmarked) [Compound 18]
F

Queued: O=C(O)c1ccc(CN2C(=O)C3(CC3)c3cc(OCc4c(-c5c(Cl)cccc5Cl)noc4C4CC4)ccc32)nc1 [Compound 22]
F

Queued: CC1(C)C(=O)N(Cc2cccc(C(=O)O)c2)c2ccc(OCc3c(-c4c(Cl)cccc4Cl)noc3C3CC3)cc21 [Compound 14]
F
